target desc: SARS-COV-2 RBD-MMH (SARS-CoV-2)
assay comment: SPR 37C, run with dissociation at pH 5.0

binder	RBD.mmh Bound at pH 7.4 (RU)
mAb15162 (antibody, V domains shown) VH: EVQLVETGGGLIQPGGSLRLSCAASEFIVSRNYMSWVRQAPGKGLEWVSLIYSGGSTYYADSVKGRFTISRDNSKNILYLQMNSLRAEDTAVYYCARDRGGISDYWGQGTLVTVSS VL: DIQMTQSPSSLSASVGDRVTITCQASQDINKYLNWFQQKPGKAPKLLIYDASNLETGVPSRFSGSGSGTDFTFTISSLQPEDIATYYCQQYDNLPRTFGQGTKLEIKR	131
mAb15160 (antibody, V domains shown) VH: EVQLVESGGGLVQPGGSLRLSCSASGFTFSRYAMYWVRQAPGKGLEYVSAISSDGGSTYDADSVKGRFTISRANSKNTLYLQMSSLRAEDTAVYYCVKGLRELLYYYYGMDVWGQGTTVTVSS VL: DIQMTQSPSSLSASVGDRVTITCRAGQSISSFLNWYQQKPGKAPKLLIYAASSLQSGVPSRFSGSGSGTDFTLTISSLQPEDFATYYCQQSYITPFTFGPGTKVDIKR	61.3
